- tested_system: H1047R PIK3CA enzyme (Homo sapiens, UniProt P42336, H1047R)
- Sequence (P42336 whole entry H1047R): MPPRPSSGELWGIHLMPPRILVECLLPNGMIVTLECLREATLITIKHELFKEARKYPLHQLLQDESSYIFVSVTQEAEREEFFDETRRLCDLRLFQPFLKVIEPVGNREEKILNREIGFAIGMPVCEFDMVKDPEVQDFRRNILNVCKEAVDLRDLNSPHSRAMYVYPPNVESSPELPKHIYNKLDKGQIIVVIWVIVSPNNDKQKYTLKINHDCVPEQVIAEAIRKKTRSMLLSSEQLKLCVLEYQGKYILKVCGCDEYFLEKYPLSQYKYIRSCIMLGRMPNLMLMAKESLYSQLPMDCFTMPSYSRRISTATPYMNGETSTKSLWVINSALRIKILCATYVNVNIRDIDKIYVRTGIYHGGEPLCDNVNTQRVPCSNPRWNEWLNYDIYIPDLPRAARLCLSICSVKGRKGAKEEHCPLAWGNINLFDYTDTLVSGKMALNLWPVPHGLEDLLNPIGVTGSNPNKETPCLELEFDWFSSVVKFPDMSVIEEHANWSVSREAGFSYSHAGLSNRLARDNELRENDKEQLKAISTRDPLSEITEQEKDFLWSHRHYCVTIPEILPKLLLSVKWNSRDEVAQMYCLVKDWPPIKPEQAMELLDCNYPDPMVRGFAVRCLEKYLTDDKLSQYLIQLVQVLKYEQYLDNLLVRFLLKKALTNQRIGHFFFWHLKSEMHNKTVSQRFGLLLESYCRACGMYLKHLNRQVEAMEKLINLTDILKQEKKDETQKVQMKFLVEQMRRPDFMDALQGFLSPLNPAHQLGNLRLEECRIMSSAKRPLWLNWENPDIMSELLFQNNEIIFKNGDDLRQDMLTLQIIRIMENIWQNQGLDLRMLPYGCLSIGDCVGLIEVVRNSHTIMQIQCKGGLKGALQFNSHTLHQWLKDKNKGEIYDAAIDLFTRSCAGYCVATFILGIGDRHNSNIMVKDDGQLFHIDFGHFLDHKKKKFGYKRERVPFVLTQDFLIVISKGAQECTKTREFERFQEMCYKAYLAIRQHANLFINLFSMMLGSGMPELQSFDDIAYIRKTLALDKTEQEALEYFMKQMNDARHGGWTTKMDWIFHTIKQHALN
- Sequence (P27986 whole entry partner): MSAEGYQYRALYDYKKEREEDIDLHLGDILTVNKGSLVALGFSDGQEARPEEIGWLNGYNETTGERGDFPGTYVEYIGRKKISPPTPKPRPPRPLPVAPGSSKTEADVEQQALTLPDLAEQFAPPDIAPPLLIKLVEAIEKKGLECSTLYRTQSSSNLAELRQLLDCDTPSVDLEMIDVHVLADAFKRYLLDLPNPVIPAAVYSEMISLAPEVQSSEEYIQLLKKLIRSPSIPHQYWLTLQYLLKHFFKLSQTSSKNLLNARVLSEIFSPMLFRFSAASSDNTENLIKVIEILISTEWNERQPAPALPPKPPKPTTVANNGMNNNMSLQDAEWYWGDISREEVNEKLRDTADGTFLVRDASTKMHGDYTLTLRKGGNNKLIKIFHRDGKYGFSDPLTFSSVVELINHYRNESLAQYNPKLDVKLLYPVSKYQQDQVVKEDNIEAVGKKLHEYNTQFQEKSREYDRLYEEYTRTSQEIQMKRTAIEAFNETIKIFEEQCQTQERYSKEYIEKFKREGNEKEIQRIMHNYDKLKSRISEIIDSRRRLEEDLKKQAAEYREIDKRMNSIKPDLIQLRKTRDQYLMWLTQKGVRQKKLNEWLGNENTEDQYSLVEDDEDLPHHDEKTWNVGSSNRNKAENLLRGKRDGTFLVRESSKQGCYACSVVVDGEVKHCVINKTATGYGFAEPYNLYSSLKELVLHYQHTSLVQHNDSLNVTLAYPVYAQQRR
- procedure_details: ADP-Glo Biochemical PIK3CA Kinase Assay
- conditions_used: ADP-Glo biochemical PIK3CA kinase assay
quantity_kind: IC50

compound="Cc1ccccc1Nc1ncc(C(=O)NC2CCN(C)C2)cc1NC(=O)c1csc2ccccc12 (stereo not drawn)" quantity_kind=IC50 meas_value="1 to 10 µM"
compound=CNC(=O)c1cnc(Nc2ccccc2C)c(NC(=O)c2ccc(C(F)F)cn2)c1 quantity_kind=IC50 meas_value="10 to 100 µM"
compound=CNC(=O)c1cnc(Nc2ccccc2C)c(NC(=O)c2cc(Cl)cc3cccnc23)c1 quantity_kind=IC50 meas_value="10 to 100 µM"

I'm curious: which IC50 was measured for CNC(=O)c1cnc(Nc2ccccc2C)c(NC(=O)CC(C)Oc2ccccc2)c1 (stereo not drawn) tested on H1047R PIK3CA enzyme (Homo sapiens, UniProt P42336, H1047R)?
10 to 100 µM

Item CCOC(=O)[C@H]1CC[C@@H](NC(=O)c2cnc(Nc3ccccc3C)c(NC(=O)c3csc4ccccc34)c2)C1 (racemic) with H1047R PIK3CA enzyme (Homo sapiens, UniProt P42336, H1047R) - IC50?
0.5 to 1 µM

----------
The entries below come with measured pIC50 values attached.
- tested_system: H1047R PIK3CA enzyme (Homo sapiens, UniProt P42336, H1047R)
- procedure_details: ADP-Glo Biochemical PIK3CA Kinase Assay
- conditions_used: ADP-Glo biochemical PIK3CA kinase assay
pIC50: −log10 of the molar value.

The cases that follow already have their pIC50 on record.
compound="Cc1ccccc1Nc1ncc(C(=O)N[C@@H]2C3CCC(C3)[C@H]2C(=O)O)cc1NC(=O)c1csc2ccccc12 (stereo partly shown)" tested_system="H1047R PIK3CA enzyme (Homo sapiens, UniProt P42336, H1047R)" meas_value="5.00 to 6.00"
compound=CNC(=O)c1cnc(Nc2ccccc2C)c(NC(=O)c2noc3ccccc23)c1 tested_system="H1047R PIK3CA enzyme (Homo sapiens, UniProt P42336, H1047R)" meas_value="5.00 to 6.00"
compound=CNC(=O)c1cnc(Nc2ccccc2C)c(NC(=O)c2cccc(Cl)c2C)c1 tested_system="H1047R PIK3CA enzyme (Homo sapiens, UniProt P42336, H1047R)" meas_value="4.00 to 5.00"

API: the following record is the query input.
Fill in: pIC50 of Cc1ccccc1Nc1ncc(C(=O)NCCn2ccnn2)cc1NC(=O)c1csc2ccccc12 is ___
6.30 to 7.00

----------
- tested_system: H1047R PIK3CA enzyme (Homo sapiens, UniProt P42336, H1047R)
- procedure_details: ADP-Glo Biochemical PIK3CA Kinase Assay
- conditions_used: ADP-Glo biochemical PIK3CA kinase assay
Quick reference: IC50 of the listed items.

Solved cases (3 shown):
compound=N#Cc1cccc(NC(=O)c2cc(F)cc(C(F)(F)F)c2)c1Cc1ccccc1Cl meas_value="0.1 to 0.5 µM"
compound=CNC(=O)c1cnc(Nc2ccccc2C)c(NC(=O)c2onc3c2CCCC3)c1 meas_value="10 to 100 µM"
compound="CC1COCCN1c1ncc(C(=O)N[C@H]2C[C@@H](C(N)=O)C2)cc1NC(=O)c1csc2ccccc12 (stereo partly shown)" meas_value="1 to 10 µM"

Value lookup for IC50; key = CNC(=O)c1cnc(Nc2ncccc2C2CC2)c(NC(=O)c2csc3ccccc23)c1
1 to 10 µM

----------
- tested_system: H1047R PIK3CA enzyme (Homo sapiens, UniProt P42336, H1047R)
- procedure_details: ADP-Glo Biochemical PIK3CA Kinase Assay
pIC50: −log10 of the molar value.
quantity_kind: pIC50

Consider the compound shown here: CNC(=O)c1cnc(Nc2cccnc2C)c(NC(=O)c2cc(F)cc(C(F)(F)F)c2)c1 What is its recorded pIC50?
4.00 to 5.00

----------
- tested_system: H1047R PIK3CA enzyme (Homo sapiens, UniProt P42336, H1047R)
- procedure_details: ADP-Glo Biochemical PIK3CA Kinase Assay
- conditions_used: ADP-Glo biochemical PIK3CA kinase assay
pIC50: −log10 of the molar value.
In this section we review reported pIC50 values for a set of molecules.

# count of solved cases: 3
molecule=CNC(=O)c1cnc(Nc2ccccc2C)c(NC(=O)c2cccc3c2OC(C)(C)C3)c1 quantity_kind=pIC50 meas_value="4.00 to 5.00"
molecule=CNC(=O)c1cnc(Nc2ccccc2C)c(NC(=O)c2cc(=O)[nH]c3ccccc23)c1 quantity_kind=pIC50 meas_value="4.00 to 5.00"
molecule="Cc1ccccc1Nc1ncc(C(=O)NC2CC(=O)N(Cc3ccccc3)C2)cc1NC(=O)c1csc2ccccc12 (stereo not shown)" quantity_kind=pIC50 meas_value="6.30 to 7.00"

Field: pIC50 (H1047R PIK3CA enzyme (Homo sapiens, UniProt P42336, H1047R)). Entry: CNC(=O)c1cnc(Nc2ccccc2C)c(NC(=O)C2(c3ccc(F)c(F)c3)CC2)c1
4.00 to 5.00

----------
Below: a set of entries, each annotated with reported IC50.
- tested_system: H1047R PIK3CA enzyme (Homo sapiens, UniProt P42336, H1047R)
- procedure_details: ADP-Glo Biochemical PIK3CA Kinase Assay
- conditions_used: ADP-Glo biochemical PIK3CA kinase assay

Query (compound): Cc1cc(CNC(=O)c2cnc(Nc3ccccc3C)c(NC(=O)c3csc4ccccc34)c2)no1 ; field requested: IC50
≤ 0.1 µM

# lookup: IC50 of CNC(=O)c1cnc(Nc2ccccc2C)c(NC(=O)c2cccc3ccoc23)c1
10 to 100 µM

Please look up its IC50: Cc1ccccc1Nc1ncc(C(=O)NCc2nc(C3CC3)no2)cc1NC(=O)c1csc2ccccc12
≤ 0.1 µM

Form field: reported IC50 of Cc1ccccc1Nc1ncc(C(=O)N[C@@H]2c3ccccc3C[C@@H]2O)cc1NC(=O)c1csc2ccccc12
0.1 to 0.5 µM

Tell me the measured IC50 of Nc1cc(C(=O)O)cnc1N1CCOc2ccccc21 , please.
1 to 10 µM

Suppose we examine the compound Cc1ccccc1Nc1ncc(C(=O)N[C@@H]2CC[C@@H](F)C2)cc1NC(=O)c1csc2ccccc12 ; what IC50 value has been reported?
0.1 to 0.5 µM

Would you mind telling me what IC50 value was observed for CNC(=O)c1cnc(Nc2ccccc2C)c(NC(=O)c2cnc(OC)c(C(F)(F)F)c2)c1 ?
1 to 10 µM

Which IC50 is listed for Cc1ccccc1Nc1c(NC(=O)c2csc3ccccc23)ccc2cc[nH]c12 ?
1 to 10 µM

If you can, please state the reported IC50 value of CNC(=O)c1cnc(Nc2ccccc2C)c(NC(=O)c2cc3c(Br)cccn3c2)c1 .
0.1 to 0.5 µM

Consider the compound CNC(=O)c1cnc(Nc2nccc3[nH]ccc23)c(NC(=O)c2csc3ccccc23)c1 and give its measured IC50.
1 to 10 µM

Look up IC50 for this compound: CNC(=O)c1cnc(Nc2ccccc2C)c(NC(=O)Cc2noc3ccccc23)c1
1 to 10 µM

Look up IC50: CNC(=O)c1cnc(Nc2ccccc2C)c(NC(=O)c2cc(C#N)cc(C(F)(F)F)c2)c1
0.1 to 0.5 µM

Can you share its IC50? I mean this compound: CNC(=O)c1cnc(Nc2ccccc2C)c(NC(=O)Cc2cc(Br)ccc2Cl)c1
1 to 10 µM

Give its IC50 value. Item: Cc1cc(CC(C)NC(=O)c2cnc(Nc3ccccc3C)c(NC(=O)c3csc4ccccc34)c2)on1 (centres unmarked)
1 to 10 µM

What value of IC50 has been recorded for this entry: Nc1cnc(Nc2cc(F)ccc2Cl)c(NC(=O)c2nsc3ccccc23)c1
10 to 100 µM

For CNC(=O)c1cnc(Nc2ccccc2C)c(NC(=O)c2ccc(Cl)c(C)c2F)c1 , what is its reported IC50?
10 to 100 µM

What value of IC50 has been recorded for this entry: CNC(=O)c1cnc(Nc2ccccc2C)c(NC(=O)c2cc(C)cc(OC)c2)c1
10 to 100 µM

Given CNC(=O)c1cnc(Nc2ccccc2C)c(NC(=O)c2[nH]c3ccccc3c2Br)c1 , state its recorded IC50.
10 to 100 µM

Request the reported IC50 associated with CNC(=O)c1cnc(Nc2ccccc2C)c(NC(=O)c2coc3c(F)cc(F)cc23)c1
0.5 to 1 µM

Which value of IC50 has been reported for CNC(=O)c1cnc(N[C@@H]2CCOC2)c(NC(=O)c2cc(F)cc(C(F)(F)F)c2)c1 (racemic) in the records?
1 to 10 µM

----------
- tested_system: H1047R PIK3CA enzyme (Homo sapiens, UniProt P42336, H1047R)
- procedure_details: ADP-Glo Biochemical PIK3CA Kinase Assay
- conditions_used: ADP-Glo biochemical PIK3CA kinase assay
pIC50: −log10 of the molar value.
quantity_kind: pIC50

Solved cases (7 shown):
compound="CNC(=O)c1cnc(Nc2ccccc2C)c(NC(=O)C(C)n2ccccc2=O)c1 (centres unmarked)" meas_value="4.00 to 5.00"
compound=CNC(=O)c1cnc(Nc2ccccc2C)c(NC(=O)c2cc3cc(F)ccc3[nH]2)c1 meas_value="4.00 to 5.00"
compound=CNC(=O)c1cnc(Nc2cnccc2C)c(NC(=O)c2csc3ccccc23)c1 meas_value="5.00 to 6.00"
compound=Cc1ccccc1Nc1ncc(C(=O)N[C@H]2C[C@@H](C(N)=O)C2)cc1NC(=O)c1csc2ccccc12 meas_value="≥ 7.00"
compound=CNC(=O)[C@H]1C[C@@H](NC(=O)c2cnc(Nc3ccccc3C)c(NC(=O)c3csc4ccccc34)c2)C1 meas_value="6.30 to 7.00"
compound="Cc1ccccc1Nc1ncc(C(=O)NC2NC(=O)c3ccccc32)cc1NC(=O)c1csc2ccccc12 (centres unmarked)" meas_value="≥ 7.00"
compound=Cc1ccccc1Nc1c(NC(=O)c2csc3ccccc23)ccn(C)c1=O meas_value="5.00 to 6.00"

Lab note: next compound to report on.
What pIC50 value was documented for this compound, Cc1ccccc1Nc1ncc(C(=O)NCC2CCC(F)(F)C2)cc1NC(=O)c1csc2ccccc12 (centres unmarked) ?
4.00 to 5.00
